// data source = paper PMC10208570

biological target: K. pneumoniae LptAm^Q62L (K. pneumoniae (ATCC 13883)); experiment: FP
pKi: −log10 of the molar value. Bridges are numbered along the chain shown (N, C = ends). Where no end group is shown, it is not given here.

{"Binder": "KKPVPIIYCNRRTGKCQRM (disulfide 9-16 (inferred)) [peptide 1]", "pKi": 7.74}
